The measurements presented in this section are drawn from patent EP0290169A2.

System: L1210 leukemia
PROCEDURE_TEXT: L1210 screening (L1210 leukemia tumor model), increase in life span
Assay type: in vivo, Female CDF1 mice
DETAILS: dose 40.00 mg/kg on day 1, vehicle water

{"COMPOUND": "N[C@@H]1CCCC[C@H]1N.O=C1[O][Pt][O]P1(=O)[O-].[Na+] [Ex 20, Na[Pt(trans-R,R-dach)(phosphonoformate)]]", "%ILS": "-14%"}
{"COMPOUND": "CC(N)CN.CCC1C(=O)[O][Pt][O]P1(=O)[O-].[Na+] (mixture of isomers) [Ex 8, Na[Pt(pn)(2-phosphonobutyrate)]]", "%ILS": "0%"}
{"COMPOUND": "CCC(C)(C(=O)[O-])P(=O)([O-])[O-].N[C@@H]1CCCC[C@H]1N.[Na+].[Pt+2] (relative stereo) [Ex 22]", "%ILS": "70%"}
{"COMPOUND": "CCC1C(=O)[O][Pt][O]P1(=O)[O-].N.N.[Na+] (racemic) [Ex 14, Na[cis-Pt(NH3)2(2-phosphonobutyrate)]]", "%ILS": "-15%"}
{"COMPOUND": "CC(N)CN.O=C1CP(=O)(O)[O][Pt][O]1 (racemic) [Ex 10, H[Pt(pn)(phasphonoacetate)]]", "%ILS": "-13%"}
{"COMPOUND": "CCCC1C(=O)[O][Pt][O]P1(=O)[O-].NC1CCCCC1N.[Na+] (mixture of isomers) [Ex 18]", "%ILS": "33%"}
{"COMPOUND": "NC1CCCCC1N.O=C1[O][Pt][O]P(=O)([O-])C1c1ccccc1.[Na+] (mixture of isomers) [Ex 6]", "%ILS": "47%"}
{"COMPOUND": "N.N.O=C1CP(=O)([O-])[O][Pt][O]1.[Na+] [Ex 21, Na(cis-Pt(NH3)2(phosphonoacetate)]]", "%ILS": "13%"}

###

System: L1210 leukemia
PROCEDURE_TEXT: L1210 screening (L1210 leukemia tumor model), increase in life span
Type: in vivo, Female CDF1 mice
DETAILS: dose 320.00 mg/kg on day 1, vehicle water
%ILS values by entry

{"COMPOUND": "CCCC1C(=O)[O][Pt][O]P1(=O)[O-].NC1CCCCC1N.[Na+] (mixture of isomers)", "%ILS / %": 24}
{"COMPOUND": "N.N.O=C1CP(=O)([O-])[O][Pt][O]1.[Na+] [Ex 21, Na(cis-Pt(NH3)2(phosphonoacetate)]]", "%ILS / %": -80}
{"COMPOUND": "CCC(C)(C(=O)[O-])P(=O)([O-])[O-].N[C@@H]1CCCC[C@H]1N.[Na+].[Pt+2] (relative stereo)", "%ILS / %": -39}
{"COMPOUND": "CCC1C(=O)[O][Pt][O]P1(=O)[O-].N.N.[Na+] (racemic) [Ex 14, Na[cis-Pt(NH3)2(2-phosphonobutyrate)]]", "%ILS / %": -80}
{"COMPOUND": "CC(N)CN.CCC1C(=O)[O][Pt][O]P1(=O)[O-].[Na+] (mixture of isomers) [Ex 8, Na[Pt(pn)(2-phosphonobutyrate)]]", "%ILS / %": -44}
{"COMPOUND": "N[C@@H]1CCCC[C@H]1N.O=C1[O][Pt][O]P1(=O)[O-].[Na+] [Ex 20, Na[Pt(trans-R,R-dach)(phosphonoformate)]]", "%ILS / %": 20}

###

System: Sarcoma 180 ascites
PROCEDURE_TEXT: S180a screening (Sarcoma 180 ascites tumor model), increase in life span
Assay type: in vivo, CFW mice
DETAILS: dose 20.00 mg/kg on day 1, vehicle water
ENDPOINT: %ILS (%)

{"MOLECULE": "CCC(C)(C(=O)[O-])P(=O)([O-])[O-].N[C@@H]1CCCC[C@H]1N.[Na+].[Pt+2] (relative stereo) [Ex 22]", "MEASURED_NUMBER": 20}
{"MOLECULE": "CC(N)CN.CC1C(=O)[O][Pt][O]P1(=O)[O-].[Na+] (mixture of isomers) [Ex 12, Na[Pt(pn)(2-phosphonopropionate)]]", "MEASURED_NUMBER": 20}
{"MOLECULE": "CC1C(=O)[O][Pt][O]P1(=O)[O-].N.N.[Na+] (racemic) [Ex 15, Na[cis-Pt(NH3)2(2-phosphonopropionate)]]", "MEASURED_NUMBER": 1}
{"MOLECULE": "CC(C)N.CC(C)N.O=C1CP(=O)([O-])[O][Pt][O]1.[Na+] [Ex 9, Na[cis-Pt(i-PrNH2)2(phosphonoacetate)]]", "MEASURED_NUMBER": 1}
{"MOLECULE": "N.N.O=C1[O][Pt][O]P(=O)([O-])C1c1ccccc1.[Na+] (racemic) [Ex 7]", "MEASURED_NUMBER": 14}
{"MOLECULE": "CC(N)CN.CCC1C(=O)[O][Pt][O]P1(=O)[O-].[Na+] (mixture of isomers) [Ex 8, Na[Pt(pn)(2-phosphonobutyrate)]]", "MEASURED_NUMBER": 4}
{"MOLECULE": "CC(N)CN.O=C1CP(=O)(O)[O][Pt][O]1 (racemic) [Ex 10, H[Pt(pn)(phasphonoacetate)]]", "MEASURED_NUMBER": 77}
{"MOLECULE": "CCCC1C(=O)[O][Pt][O]P1(=O)[O-].N.N.[Na+] (racemic) [Ex 19, Na[cis-Pt(NH3)2(2-phosphonovalerate)]]", "MEASURED_NUMBER": -74}
{"MOLECULE": "N[C@@H]1CCCC[C@H]1N.O=C1[O][Pt][O]P1(=O)[O-].[Na+] [Ex 20, Na[Pt(trans-R,R-dach)(phosphonoformate)]]", "MEASURED_NUMBER": -5}
{"MOLECULE": "NCCN.O=C1CP(=O)(O)[O][Pt][O]1 [Ex 16, H[Pt(en)(phosphonoacetate)]]", "MEASURED_NUMBER": 29}

###

Tested on: Sarcoma 180 ascites
PROCEDURE_TEXT: S180a screening (Sarcoma 180 ascites tumor model), increase in life span
Assay type: in vivo, CFW mice
DETAILS: dose 320.00 mg/kg on day 1, vehicle water

{"COMPOUND": "N[C@@H]1CCCC[C@H]1N.O=C1[O][Pt][O]P1(=O)[O-].[Na+] [Ex 20, Na[Pt(trans-R,R-dach)(phosphonoformate)]]", "%ILS, %": 55}
{"COMPOUND": "CC(C)N.CC(C)N.O=C1CP(=O)([O-])[O][Pt][O]1.[Na+] [Ex 9, Na[cis-Pt(i-PrNH2)2(phosphonoacetate)]]", "%ILS, %": 17}
{"COMPOUND": "CCC(C)(C(=O)[O-])P(=O)([O-])[O-].N[C@@H]1CCCC[C@H]1N.[Na+].[Pt+2] (relative stereo)", "%ILS, %": -78}
{"COMPOUND": "CC(N)CN.O=C1CP(=O)(O)[O][Pt][O]1 (racemic) [Ex 10, H[Pt(pn)(phasphonoacetate)]]", "%ILS, %": -79}

###

Overview of recorded Surv. for various compounds
Test system: Sarcoma 180 ascites
PROCEDURE_TEXT: S180a screening (Sarcoma 180 ascites tumor model), increase in life span
Type: in vivo, CFW mice
DETAILS: dose 40.00 mg/kg on day 1, vehicle water; survivors on day of evaluation

{"COMPOUND": "NCCN.O=C1CP(=O)(O)[O][Pt][O]1 [Ex 16, H[Pt(en)(phosphonoacetate)]]", "TARGET_SYSTEM": "Sarcoma 180 ascites", "Surv.": "3/ 6"}
{"COMPOUND": "N[C@@H]1CCCC[C@H]1N.O=C1[O][Pt][O]P1(=O)[O-].[Na+] [Ex 20, Na[Pt(trans-R,R-dach)(phosphonoformate)]]", "TARGET_SYSTEM": "Sarcoma 180 ascites", "Surv.": "0/ 6"}
{"COMPOUND": "CC1C(=O)[O][Pt][O]P1(=O)[O-].N.N.[Na+] (racemic) [Ex 15, Na[cis-Pt(NH3)2(2-phosphonopropionate)]]", "TARGET_SYSTEM": "Sarcoma 180 ascites", "Surv.": "0/ 6"}
{"COMPOUND": "CC(N)CN.CC1C(=O)[O][Pt][O]P1(=O)[O-].[Na+] (mixture of isomers) [Ex 12, Na[Pt(pn)(2-phosphonopropionate)]]", "TARGET_SYSTEM": "Sarcoma 180 ascites", "Surv.": "0/ 6"}
{"COMPOUND": "CC(N)CN.O=C1CP(=O)(O)[O][Pt][O]1 (racemic) [Ex 10, H[Pt(pn)(phasphonoacetate)]]", "TARGET_SYSTEM": "Sarcoma 180 ascites", "Surv.": "1/ 6"}

###

Test system: Sarcoma 180 ascites
PROCEDURE_TEXT: S180a screening (Sarcoma 180 ascites tumor model), increase in life span
Type: in vivo, CFW mice
DETAILS: dose 10.00 mg/kg on day 1, vehicle water
Label 1 for high-side %ILS (at or above 20%) and 0 for low-side %ILS (below it).

{"COMPOUND": "CCC(C)(C(=O)[O-])P(=O)([O-])[O-].N[C@@H]1CCCC[C@H]1N.[Na+].[Pt+2] (relative stereo)", "CAT": 1}
{"COMPOUND": "N[C@@H]1CCCC[C@H]1N.O=C1[O][Pt][O]P1(=O)[O-].[Na+] [Ex 20, Na[Pt(trans-R,R-dach)(phosphonoformate)]]", "CAT": 0}
{"COMPOUND": "CC1C(=O)[O][Pt][O]P1(=O)[O-].N.N.[Na+] (racemic) [Ex 15, Na[cis-Pt(NH3)2(2-phosphonopropionate)]]", "CAT": 0}
{"COMPOUND": "CC(N)CN.CCC1C(=O)[O][Pt][O]P1(=O)[O-].[Na+] (mixture of isomers) [Ex 8, Na[Pt(pn)(2-phosphonobutyrate)]]", "CAT": 0}
{"COMPOUND": "NCCN.O=C1CP(=O)(O)[O][Pt][O]1 [Ex 16, H[Pt(en)(phosphonoacetate)]]", "CAT": 0}
